System: SF-295 CNS
RUN DESCRIPTION: NCI-60 one-dose screen, 48 h
TEST CONDITIONS: 10 µM unless noted
Protocol: Cells are grown in 96 well plates and exposed to the test compound for 48 hours. Compounds are tested at a single concentration, which is 10^-5 M for most compounds. The reported endpoint is percent growth (GI% or GIPRCNT), where numbers from 0 - 100% represent growth inhibition, and numbers from -100% - 0 represent cell death. For example, a value of 40 represents 60% growth inhibition. A value of 0 means no net growth occurred over the course of the experiment. […]
This is part of a sample that, as a whole, favours compounds with a hit. Of some 83,000 tested, about 20% had one in any assay. Active and inactive are the calls of the source. The calls were made as follows: active = growth percent below 10; inactive = the rest.
Output constraint: value belongs to active, inactive

Answer briefly: the call reported for "C#CCOc1ccc2ncnc(N3CCC(NC(=O)CCl)CC3)c2c1" in this assay.
inactive

Answer briefly: the call reported for "CC(C)(C)c1cc(/C=N\NC(=O)/C=C/C=C/c2ccc3c(c2)OCO3)c(O)c(C(C)(C)C)c1" in this assay.
inactive

Answer briefly: the call reported for "CCN(CC)c1ccc(-c2cc(-c3cc(OC)c(OC)c(OC)c3)nc(N3CCOCC3)c2C#N)cc1" in this assay.
active

Answer briefly: the call reported for "CCNC(=O)Oc1ccc(/C(=C(\C)c2ccc(Cl)cc2)c2ccc(OCCN(CC)CC)cc2)cc1" in this assay.
inactive

Answer briefly: the call reported for "CC1=CC(=NN=c2cc(C)n([O-])c(C)c2)C=C(C)[N+]1=O" in this assay.
inactive

Answer briefly: the call reported for "CCn1c(Cc2ccccc2Nc2c(Cl)cccc2Cl)nnc1SCC(=O)NN1C(=O)/C(=C/c2cc(OC)c(O)c(OC)c2)SC1=S" in this assay.
inactive

Answer briefly: the call reported for "Cn1c(O)c(N=NC(=O)c2cc(-c3ccccc3)on2)c2ccccc21" in this assay.
inactive

Answer briefly: the call reported for "CN(C)C(=S)N=Nc1c(O)[nH]c2ccccc12" in this assay.
inactive

Origin of values: PubChem BioAssay (NCI)
